target: Platelet-activating factor acetylhydrolase (Homo sapiens); experiment: Inhibition of isolated human lipoprotein associated phospholipase A2
Sequence (Q13093 whole entry): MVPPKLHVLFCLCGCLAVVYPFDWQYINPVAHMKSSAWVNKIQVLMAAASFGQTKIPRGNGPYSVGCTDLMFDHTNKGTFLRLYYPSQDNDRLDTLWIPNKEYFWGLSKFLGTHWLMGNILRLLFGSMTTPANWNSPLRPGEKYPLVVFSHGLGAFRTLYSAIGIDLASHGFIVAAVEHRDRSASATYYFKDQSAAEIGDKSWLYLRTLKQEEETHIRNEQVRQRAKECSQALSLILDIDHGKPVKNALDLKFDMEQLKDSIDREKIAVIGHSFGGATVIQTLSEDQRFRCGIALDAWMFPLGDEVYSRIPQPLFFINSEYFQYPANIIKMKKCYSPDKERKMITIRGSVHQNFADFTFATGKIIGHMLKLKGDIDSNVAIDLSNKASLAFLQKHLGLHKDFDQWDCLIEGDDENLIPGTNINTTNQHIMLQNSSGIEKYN
Quantity: pIC50
The scale used: pIC50 is minus the common logarithm of the concentration in molar units.

# lookup: pIC50 of COCCn1cc(Cc2cncnc2)c(=O)nc1SCCCCCCCC(=O)c1ccc(Cl)cc1
6.96

* * *

molecular target: UniProt:Q13093; experiment: Inhibition of isolated human lipoprotein associated phospholipase A2
Quantity: pIC50
The scale used: pIC50 is minus the common logarithm of the concentration in molar units.

Consider the worked cases shown below.
CCCCCCCCCCNC(=O)CCCn1cc(Cc2cncnc2)c(=O)nc1SCc1ccc(F)cc1 = 10.00
Cn1cc(Cc2cncnc2)c(=O)nc1SCc1ccc(F)cc1 = 6.55
CCn1cc(Cc2cncnc2)c(=O)nc1SCCCCCCCC(=O)c1ccc(Cl)cc1 = 7.41
O=C(Cn1cc(Cc2cncnc2)c(=O)nc1SCc1ccc(F)cc1)NCCCCCCc1ccc(F)cc1 = 8.70
O=c1nc(SCc2ccccc2F)n(Cc2ccco2)cc1Cc1cncnc1 = 6.35
O=c1nc(SCc2ccc(F)cc2)n(CCc2cccs2)cc1Cc1cncnc1 = 6.60

Now look at this entry.
# lookup: pIC50 of CCCCCCCNC(=O)Cn1cc(Cc2cncnc2)c(=O)nc1SCc1ccc(F)cc1
7.72
